Values were extracted from patent US20160264649A1.

measurement target: HIV-1 Env of isolate MGRM-F1-016 (subtype F) (HIV-1)
assay explanation: cell-based or functional assay
readout: IC50 (neutralization)

Previously resolved entries follow.
PGT-126 (antibody, V domains shown) VH: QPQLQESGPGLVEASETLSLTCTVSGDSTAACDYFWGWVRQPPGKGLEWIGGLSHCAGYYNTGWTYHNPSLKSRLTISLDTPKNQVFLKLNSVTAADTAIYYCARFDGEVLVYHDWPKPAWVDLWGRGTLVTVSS VL: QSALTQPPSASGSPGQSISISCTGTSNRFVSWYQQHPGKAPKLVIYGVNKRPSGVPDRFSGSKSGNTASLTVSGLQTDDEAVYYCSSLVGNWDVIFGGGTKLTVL ... > 50 µg/mL
PGT-127 (antibody, V domains shown) VH: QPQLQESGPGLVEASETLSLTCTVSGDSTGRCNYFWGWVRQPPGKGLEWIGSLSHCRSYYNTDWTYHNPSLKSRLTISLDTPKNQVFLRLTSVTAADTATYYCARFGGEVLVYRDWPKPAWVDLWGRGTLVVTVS VL: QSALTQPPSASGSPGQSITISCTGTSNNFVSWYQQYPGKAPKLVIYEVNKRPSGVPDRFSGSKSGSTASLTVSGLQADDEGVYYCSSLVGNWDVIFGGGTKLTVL ... > 50 µg/mL

Turning now to a further record.
Entry under test: PGT-130 (antibody, V domains shown) VH: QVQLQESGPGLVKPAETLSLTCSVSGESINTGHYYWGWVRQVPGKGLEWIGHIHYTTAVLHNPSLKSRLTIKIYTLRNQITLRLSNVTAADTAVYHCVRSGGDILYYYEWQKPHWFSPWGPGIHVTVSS VL: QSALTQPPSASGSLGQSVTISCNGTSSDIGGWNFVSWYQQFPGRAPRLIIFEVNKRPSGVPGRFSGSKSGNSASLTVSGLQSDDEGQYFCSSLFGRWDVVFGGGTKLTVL . Its IC50 (neutralization) was > 50 µg/mL
